Reference source for all entries: ChEMBL document CHEMBL4368899

# System: HepG2
# Test Method Notes: Antidiabetic activity in human HepG2 cells assessed as increase in glucose consumption at 5 ug/mL after 48 hrs by glucose oxidase method relative to berberine
# Type: functional
List of Activity values.
Give just the number in %; leave the unit off.

>  <Smiles Code>
COc1ccc2cc3[n+](cc2c1OCc1cn([C@@H]2O[C@@H](C)[C@H](O)[C@@H](O)[C@H]2O)nn1)CCc1cc2c(cc1-3)OCO2.[Cl-]

>  <Tgt>
HepG2

>  <Activity (%)>
-3.6

$$$$
>  <Smiles Code>
COc1ccc2cc3[n+](cc2c1OCc1cn([C@@H]2O[C@H](CO)[C@@H](O)[C@H](O)[C@H]2O)nn1)CCc1cc2c(cc1-3)OCO2.[Cl-]

>  <Tgt>
HepG2

>  <Activity (%)>
2.23

$$$$
>  <Smiles Code>
COc1ccc2cc3[n+](cc2c1OCc1cn([C@@H]2O[C@H](CO)[C@@H](O)[C@H]2O)nn1)CCc1cc2c(cc1-3)OCO2.[Cl-]

>  <Tgt>
HepG2

>  <Activity (%)>
14.83

$$$$
>  <Smiles Code>
COc1ccc2cc3[n+](cc2c1OCc1cn([C@H]2O[C@H](CO)[C@@H](O)[C@H](O)[C@@H]2O)nn1)CCc1cc2c(cc1-3)OCO2.[Cl-]

>  <Tgt>
HepG2

>  <Activity (%)>
10.81

$$$$

[in] # get_value(readout='Activity', item= COc1ccc2cc3[n+](cc2c1OCc1cn([C@@H]2O[C@H](CO)[C@H](O)[C@H](O)[C@H]2O)nn1)CCc1cc2c(cc1-3)OCO2.[Cl-] )
[out] 0.21
